Recorded pIC50 values for a group of compounds are listed next.
Molecular target: NLRP3 inflammasome (Homo sapiens (Human), UniProt Q96P20)
Sequence (Q96P20 whole entry): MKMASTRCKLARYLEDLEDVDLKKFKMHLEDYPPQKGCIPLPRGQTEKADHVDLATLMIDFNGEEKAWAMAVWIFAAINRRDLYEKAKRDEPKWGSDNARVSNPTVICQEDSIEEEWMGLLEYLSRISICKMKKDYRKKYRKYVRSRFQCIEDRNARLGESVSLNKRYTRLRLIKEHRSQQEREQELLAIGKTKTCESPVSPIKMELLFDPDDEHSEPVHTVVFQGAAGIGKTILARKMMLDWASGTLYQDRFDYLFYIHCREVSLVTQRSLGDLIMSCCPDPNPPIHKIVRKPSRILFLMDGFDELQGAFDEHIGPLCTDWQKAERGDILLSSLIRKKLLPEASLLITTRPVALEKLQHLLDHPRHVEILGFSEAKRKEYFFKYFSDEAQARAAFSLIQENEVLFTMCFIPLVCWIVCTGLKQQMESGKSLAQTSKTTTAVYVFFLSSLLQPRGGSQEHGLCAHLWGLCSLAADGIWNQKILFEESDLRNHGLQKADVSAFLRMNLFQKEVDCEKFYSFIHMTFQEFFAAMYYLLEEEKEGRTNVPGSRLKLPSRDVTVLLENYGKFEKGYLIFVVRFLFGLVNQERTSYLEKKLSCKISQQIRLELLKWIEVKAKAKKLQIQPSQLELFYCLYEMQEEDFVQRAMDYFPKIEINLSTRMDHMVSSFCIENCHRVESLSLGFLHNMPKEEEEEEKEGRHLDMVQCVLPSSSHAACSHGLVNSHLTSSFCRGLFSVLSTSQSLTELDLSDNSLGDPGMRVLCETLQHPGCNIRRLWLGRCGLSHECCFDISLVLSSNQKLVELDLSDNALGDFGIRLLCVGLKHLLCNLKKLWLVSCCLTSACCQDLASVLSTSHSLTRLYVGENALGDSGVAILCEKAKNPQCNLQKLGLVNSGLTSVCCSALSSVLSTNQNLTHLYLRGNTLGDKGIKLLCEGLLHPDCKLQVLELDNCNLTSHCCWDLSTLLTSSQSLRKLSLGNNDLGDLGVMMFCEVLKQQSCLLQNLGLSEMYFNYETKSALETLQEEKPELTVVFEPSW
Assay: Evaluation of NLRP3 inflammasome inhibitory activity (inhibition of IL-1β production in LPS/Nigericin-stimulated THP1-Null cells)
Details: IL-1β production in THP1-Null cells, PMA, LPS 1 μg/mL, Nigericin 7.5 μmol/L, AlphaLISA
Please note pIC50 is a logarithmic value: minus log10 of concentration in mol/L. Answer with that number alone.

- Smiles Str: "Cc1ccccc1-n1cc2c(=O)[nH]c(N3CCCC3)nc2n1"
  Quantitative Readout: 6.28
- Smiles Str: "Cc1cc(C2CC2)cc(C)c1-n1cc2c(=O)[nH]c(N3CC4CC(C3)O4)nc2n1"
  Quantitative Readout: 8.22
- Smiles Str: "Cc1cc(Br)ccc1-n1cc2c(=O)[nH]c(N3CCN(C4CC4)C(=O)C3)nc2n1"
  Quantitative Readout: 7.11

Consider now this further compound.
Problem: Param item = "Cc1cc(Br)ccc1-n1cc2c(=O)[nH]c(N3Cc4ccccc4C3)nc2n1" ; retrieve measured pIC50.
Solution: 7.85

###

Target: NLRP3 inflammasome (Homo sapiens (Human), UniProt Q96P20)
Assay: Evaluation of NLRP3 inflammasome inhibitory activity (inhibition of IL-1β production in LPS/Nigericin-stimulated THP1-Null cells)
Conditions: IL-1β production in THP1-Null cells, PMA, LPS 1 μg/mL, Nigericin 7.5 μmol/L, AlphaLISA
Protocol: The NLRP3 inflammasome inhibitory activity of test compounds were evaluated on the basis of the inhibitory activity of the IL-1β production in THP1-Null cells (Product Number: thp-null, InvivoGen). […] The amount of IL-1β in the culture supernatant was quantitated with AlphaLISA(registered trademark) Human IL-1β Detection Kit (Product Number: AL220C, Perkin Elmer). […]
Observable: IC50 (nM)
Express your answer in nM, writing the number without its unit.

Use these answered entries as a reference point.
- Molecule: "Cc1cc(Br)ccc1-n1cc2c(=O)[nH]c(N3CCN(C(=O)C4CC4)CC3)nc2n1 [Example 140]"
  IC50 [nM]: 5.8
- Molecule: "CC(=O)N(C)c1nc2nn(-c3ccc(C)cc3C)cc2c(=O)[nH]1 [Example 66]"
  IC50 [nM]: 4300
- Molecule: "COc1cc(Br)ccc1-n1cc2c(=O)[nH]c(N3CCOCC3)nc2n1 [Example 304]"
  IC50 [nM]: 65
- Molecule: "O=c1[nH]c(N2CCOCC2)nc2nn(-c3c(O)cc(C(F)(F)F)cc3Cl)cc12 [Example 257]"
  IC50 [nM]: 69
- Molecule: "Cc1ccccc1-n1cc2c(=O)[nH]c(N3CCC(O)C3)nc2n1 (racemic) [Example 21]"
  IC50 [nM]: 1600
- Molecule: "Cc1cc(C)c(-n2cc3c(=O)[nH]c(N4CCNCC4)nc3n2)c(C)c1 [Example 102]"
  IC50 [nM]: 130
- Molecule: "COC(c1cc(C2CC2)ccc1-n1cc2c(=O)[nH]c(N3C[C@H]4C[C@@H]3CO4)nc2n1)C1CC1 (some centres unmarked) [Example 315]"
  IC50 [nM]: 670
- Molecule: "Cc1cc(Cl)ccc1-n1cc2c(=O)[nH]c(N3CCCOCC3)nc2n1 [Example 165]"
  IC50 [nM]: 29

Problem: Param item = COCC(=O)N1CCN(c2nc3nn(-c4ccc(Br)cc4C)cc3c(=O)[nH]2)CC1 [Example 141] ; retrieve measured IC50.
Solution: 9.6

Problem: Param item = COC[C@H]1CCN(c2nc3nn(-c4ccc(Br)cc4C)cc3c(=O)[nH]2)CCO1 [Example 193] ; retrieve measured IC50.
Solution: 42

###

Recorded pIC50 values for a group of compounds are listed next.
Target: NLRP3 inflammasome (Homo sapiens (Human), UniProt Q96P20)
Assay: Evaluation of NLRP3 inflammasome inhibitory activity (inhibition of IL-1β production in LPS/Nigericin-stimulated THP1-Null cells)
Settings: IL-1β production in THP1-Null cells, PMA, LPS 1 μg/mL, Nigericin 7.5 μmol/L, AlphaLISA
Please note pIC50 is a logarithmic value: minus log10 of concentration in mol/L. Answer with that number alone.

Use these answered entries as a reference point.
- Compound: "Cc1cc(Br)ccc1-n1cc2c(=O)[nH]c(N3CCCC3)nc2n1"
  Observable: "pIC50"
  Quantitative Readout: 8.04
- Compound: "Cc1cc(Br)ccc1-n1cc2c(=O)n(C)c(N3CCN(S(C)(=O)=O)CC3)nc2n1"
  Observable: "pIC50"
  Quantitative Readout: 6.85
- Compound: "COC1CCN(c2nc3nn(-c4c(C)cccc4C)cc3c(=O)[nH]2)C1 (racemic)"
  Observable: "pIC50"
  Quantitative Readout: 6.32
- Compound: "Cc1cc(Br)cc(C)c1-n1cc2c(=O)[nH]c(N3CCOCCO3)nc2n1"
  Observable: "pIC50"
  Quantitative Readout: 7.43
- Compound: "Cc1cc(C(F)(F)F)cnc1-n1cc2c(=O)[nH]c(N3CCOCC3)nc2n1"
  Observable: "pIC50"
  Quantitative Readout: 6.74

Problem: Param item = "CC(C)(C)c1ccc(-n2cc3c(=O)[nH]c(N4CCOCC4)nc3n2)c(Br)c1" ; retrieve measured pIC50.
Solution: 7.07

Problem: Param item = "Cc1cc(Br)cc(C)c1-n1cc2c(=O)[nH]c(N3C=COCC3)nc2n1" ; retrieve measured pIC50.
Solution: 8.59

Problem: Param item = O=c1[nH]c(N2CC3CNCC3C2)nc2nn(-c3ccc(C(F)(F)F)cc3Cl)cc12 (centres unmarked) ; retrieve measured pIC50.
Solution: 6.64

Problem: Param item = "Cc1cc(-n2cc3c(=O)[nH]c(N4CCOCC4)nc3n2)c(C)cc1Cl" ; retrieve measured pIC50.
Solution: 6.46

Problem: Param item = "Cc1cc(C(F)(F)F)cc(C)c1-n1cc2c(=O)[nH]c(N3C[C@H]4C[C@@H]3CO4)nc2n1" ; retrieve measured pIC50.
Solution: 8.48

Problem: Param item = "Cc1cc(Cl)cc(C)c1-n1cc2c(=O)[nH]c(N3CCOCC3)nc2n1" ; retrieve measured pIC50.
Solution: 7.80

Problem: Param item = "Cc1cccc(C)c1-n1cc2c(=O)[nH]c(N3CC(C(F)(F)F)C3)nc2n1" ; retrieve measured pIC50.
Solution: 6.12

Problem: Param item = "O=c1[nH]c(N2CCCNCC2)nc2nn(-c3ccc(C(F)(F)F)cc3Cl)cc12" ; retrieve measured pIC50.
Solution: 7.20

Problem: Param item = "O=c1[nH]c(N2C[C@@H]3C[C@H]2CO3)nc2nn(-c3ccc(Br)cc3C(F)(F)F)cc12" ; retrieve measured pIC50.
Solution: 7.77

Problem: Param item = "O=c1[nH]c(N2C[C@H]3C[C@@H]2CO3)nc2nn(-c3ccc(C4CC4)cc3C(F)(F)F)cc12" ; retrieve measured pIC50.
Solution: 8.01

Problem: Param item = "Cn1c(N2CC3CC(C2)O3)nc2nn(-c3ccc(Br)cc3C(F)(F)F)cc2c1=O" ; retrieve measured pIC50.
Solution: 6.49

Problem: Param item = CCOC1CCN(c2nc3nn(-c4ccccc4C)cc3c(=O)[nH]2)C1 (racemic) ; retrieve measured pIC50.
Solution: 6.02

###

Target: NLRP3 inflammasome (Homo sapiens (Human), UniProt Q96P20)
Assay: Evaluation of NLRP3 inflammasome inhibitory activity (inhibition of IL-1β production in LPS/Nigericin-stimulated THP1-Null cells)
Settings: IL-1β production in THP1-Null cells, PMA, LPS 1 μg/mL, Nigericin 7.5 μmol/L, AlphaLISA
Protocol: The NLRP3 inflammasome inhibitory activity of test compounds were evaluated on the basis of the inhibitory activity of the IL-1β production in THP1-Null cells (Product Number: thp-null, InvivoGen). […] The amount of IL-1β in the culture supernatant was quantitated with AlphaLISA(registered trademark) Human IL-1β Detection Kit (Product Number: AL220C, Perkin Elmer). […]
pIC50: −log10 of the molar value.
Lab note: anything with pIC50 at or over 8 counts as 1; the rest go in -1.

- Smiles Str: "Cc1cc(OC(F)(F)F)cc(C)c1-n1cc2c(=O)[nH]c(N3CCOCC3)nc2n1"
  Label: -1

Problem: Evaluate "Cc1cc(C(C)(F)F)cc(C)c1-n1cc2c(=O)[nH]c(N3CCOCCO3)nc2n1" : pIC50 at minimum 8?
Solution: -1

Problem: Evaluate "Cc1ccccc1-n1cc2c(=O)[nH]c(N3CCOCC3)nc2n1" : pIC50 at minimum 8?
Solution: -1

Problem: Evaluate "Cc1cc(Br)cc(C)c1-n1cc2c(=O)[nH]c(N3CCC[C@@H]3C)nc2n1" : pIC50 at minimum 8?
Solution: -1

Problem: Evaluate "Cc1ccc(-n2cc3c(=O)[nH]c(N4CCCC4)nc3n2)c(Cl)c1" : pIC50 at minimum 8?
Solution: 1

Problem: Evaluate "O=c1[nH]c(N2CCCC2)nc2nn(-c3ccc(Cl)cc3C(F)(F)F)cc12" : pIC50 at minimum 8?
Solution: 1
